target: full-length beta-Catenin (Uniprot ID P35222) (Homo sapiens (Human)) (UniProt P35222); assay: fluorescence polarization competition vs 5FAM-TCF4(10-53) on full-length beta-catenin
Starred links: 1 amine or outer side, 2 acyl side, 3 side chain; linkers in the order of their positions; H or OH if unused. Positions of bridges follow the written chain, without caps; N, C: chain ends. Non-standard residues stand in square brackets, D forms with d. Primed or numbered codes have the meaning given here. PyrS2″ = (S)-3-amino-1-((pent-4-en-1-yloxy)carbonyl)pyrrolidine-3-carboxylic acid (stapling residue), C=CCCCOC(=O)N1CC[C@@](N[*:1])(C(=O)[*:2])C1; B5(4) = 2,2-bis(4-pentenyl)glycine = 2-amino-2-(pent-4-en-1-yl)hept-6-enoic acid (stitching residue), C=CCCCC(CCCC=C)(N[*:1])C(=O)[*:2]; B5(5) = 2,2-bis(4-pentenyl)glycine, 2-amino-2-(pent-4-en-1-yl)hept-6-enoic acid (stitching residue), C=CCCCC(CCCC=C)(N[*:1])C(=O)[*:2]; TfeGA = (S)-2-amino-3-((carboxymethyl)(2,2,2-trifluoroethyl)amino)propanoic acid, O=C([C@H](CN(CC(=O)[*:3])CC(F)(F)F)N[*:1])[*:2]; PyrS2 = (S)-3-amino-1-((pent-4-en-1-yloxy)carbonyl)pyrrolidine-3-carboxylic acid, C=CCCCOC(=O)N1CC[C@@](N[*:1])(C(=O)[*:2])C1; B5 = 2-amino-2-(pent-4-en-1-yl)hept-6-enoic acid, C=CCCCC(CCCC=C)(N[*:1])C(=O)[*:2]; Phe(2-Cl) = N[C@@H](Cc1ccccc1Cl)C(=O)O; Bta = N[C@@H](Cc1csc2ccccc12)C(=O)O; αAllylPro = C=CC[C@@]1(C(=O)O)CCCN1; tBuAla = CC(C)(C)C[C@H](N)C(=O)O; 3Thi = N[C@@H](Cc1ccsc1)C(=O)O; Cha = N[C@@H](CC1CCCCC1)C(=O)O
# Lookup of reported pIC50 keyed by entry
Hey, just a heads up that pIC50 is the negative log base 10 of the concentration in molar.

Ac-[αAllylPro]D[tBuAla][B5(5)]NTAAFN[PyrS2″][3Thi]WQ-NH2 (staple 1-4, 4-11; also: separately listed staple isomer composition) [I-1876] | 5.87
Ac-[αAllylPro]D[tBuAla][B5]D[TfeGA]AAFN[PyrS2][3Thi][Bta]Y-NH2 (staple 1-4, 4-11; also: later-eluting staple isomer composition) [I-953] | 5.84

Consider Ac-[αAllylPro]D[Cha][B5(4)]DDALFT[PyrS2″][Phe(2-Cl)][Bta]S-NH2 (staple 1-4, 4-11) [I-1151] . Its measured pIC50 is 7.52

Summary for this binder, Ac-[αAllylPro]D[tBuAla][B5]D[TfeGA]AAFS[PyrS2][3Thi][Bta]S-NH2 (staple 1-4, 4-11; also: earlier-eluting staple isomer composition) [I-954] : pIC50 is 6.05
